Molecular target: T1, cynomolgus IL-18BP (cynomolgus monkey)
T1 construct: also called cyno IL-18BP; cyIL-18BP
T1 chain: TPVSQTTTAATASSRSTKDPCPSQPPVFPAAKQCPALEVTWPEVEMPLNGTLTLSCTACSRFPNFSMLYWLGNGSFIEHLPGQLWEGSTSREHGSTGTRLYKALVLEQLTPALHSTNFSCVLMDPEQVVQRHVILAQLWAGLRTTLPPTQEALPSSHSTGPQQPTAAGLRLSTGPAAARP
Experiment: BLI, apparent KD
quantityName: Kd (pM)
Express it in pM; write the number only.

Task item: Given SA301a HC-Y100H (antibody, V domains shown) VH: QVQLQESGPGLVKPSQTLSLTCTVSGYSITSDYNSHWIRQPPGKGLEWIGYIHYSGSTNYNPSLKSRVTISRDTSKNQFSLKLSSVTAADTAVYYCARNYGSIHVNYFDYWGQGTLVTVSS VL: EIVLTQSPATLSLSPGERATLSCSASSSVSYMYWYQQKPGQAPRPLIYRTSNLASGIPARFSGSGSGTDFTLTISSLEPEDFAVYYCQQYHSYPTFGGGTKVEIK , state its recorded Kd.
Reply: 1100

Task item: Data request, read-out Kd, for SA301a HC-V100aH (antibody, name in Kabat numbering, V domains shown, IgG1 kappa) VH: QVQLQESGPGLVKPSQTLSLTCTVSGYSITSDYNSHWIRQPPGKGLEWIGYIHYSGSTNYNPSLKSRVTISRDTSKNQFSLKLSSVTAADTAVYYCARNYGSIYHNYFDYWGQGTLVTVSS VL: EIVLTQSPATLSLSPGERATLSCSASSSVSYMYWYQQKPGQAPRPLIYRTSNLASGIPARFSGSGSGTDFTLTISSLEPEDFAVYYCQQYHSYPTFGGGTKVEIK
Reply: 60

Task item: What value of Kd has been reported for the following binder? SA301a HC-V100aG (antibody, name in Kabat numbering, V domains shown, IgG1 kappa) VH: QVQLQESGPGLVKPSQTLSLTCTVSGYSITSDYNSHWIRQPPGKGLEWIGYIHYSGSTNYNPSLKSRVTISRDTSKNQFSLKLSSVTAADTAVYYCARNYGSIYGNYFDYWGQGTLVTVSS VL: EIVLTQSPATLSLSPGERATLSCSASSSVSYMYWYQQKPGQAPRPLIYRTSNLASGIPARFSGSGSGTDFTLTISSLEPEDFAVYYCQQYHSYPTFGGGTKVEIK
Reply: 920

Task item: I am curious: what Kd value has been reported for SA301a HC-I99F (antibody, name in Kabat numbering, V domains shown, IgG1 kappa) VH: QVQLQESGPGLVKPSQTLSLTCTVSGYSITSDYNSHWIRQPPGKGLEWIGYIHYSGSTNYNPSLKSRVTISRDTSKNQFSLKLSSVTAADTAVYYCARNYGSFYVNYFDYWGQGTLVTVSS VL: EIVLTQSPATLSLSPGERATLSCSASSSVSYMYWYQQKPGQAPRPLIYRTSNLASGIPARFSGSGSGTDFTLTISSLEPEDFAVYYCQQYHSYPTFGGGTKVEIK ?
Reply: 970

Task item: So what does the record say about Kd for SA301a HC-I99G (antibody, name in Kabat numbering, V domains shown, IgG1 kappa) VH: QVQLQESGPGLVKPSQTLSLTCTVSGYSITSDYNSHWIRQPPGKGLEWIGYIHYSGSTNYNPSLKSRVTISRDTSKNQFSLKLSSVTAADTAVYYCARNYGSGYVNYFDYWGQGTLVTVSS VL: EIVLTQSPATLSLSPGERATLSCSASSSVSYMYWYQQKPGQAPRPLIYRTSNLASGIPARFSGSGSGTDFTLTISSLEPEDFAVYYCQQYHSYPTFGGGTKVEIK ?
Reply: 670
